molecular target: T1, human PCSK9 variant b (human, UniProt Q8NBP7 31-692); experiment: ProteOn SPR, captured antibody, pH 7.6;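 also: antibodies captured via anti-human Fc on a GLC sensor chip, PCSK9 binding sensorgrams fitted to a 1:1 Langmuir model giving on and off rates, with KD derived from them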
T1 construct: also called Human PCSK9 var B; hPCSK9b
T1 sequence (Q8NBP7 other isoform, or with tags, fused parts or gaps mutant limits assumed): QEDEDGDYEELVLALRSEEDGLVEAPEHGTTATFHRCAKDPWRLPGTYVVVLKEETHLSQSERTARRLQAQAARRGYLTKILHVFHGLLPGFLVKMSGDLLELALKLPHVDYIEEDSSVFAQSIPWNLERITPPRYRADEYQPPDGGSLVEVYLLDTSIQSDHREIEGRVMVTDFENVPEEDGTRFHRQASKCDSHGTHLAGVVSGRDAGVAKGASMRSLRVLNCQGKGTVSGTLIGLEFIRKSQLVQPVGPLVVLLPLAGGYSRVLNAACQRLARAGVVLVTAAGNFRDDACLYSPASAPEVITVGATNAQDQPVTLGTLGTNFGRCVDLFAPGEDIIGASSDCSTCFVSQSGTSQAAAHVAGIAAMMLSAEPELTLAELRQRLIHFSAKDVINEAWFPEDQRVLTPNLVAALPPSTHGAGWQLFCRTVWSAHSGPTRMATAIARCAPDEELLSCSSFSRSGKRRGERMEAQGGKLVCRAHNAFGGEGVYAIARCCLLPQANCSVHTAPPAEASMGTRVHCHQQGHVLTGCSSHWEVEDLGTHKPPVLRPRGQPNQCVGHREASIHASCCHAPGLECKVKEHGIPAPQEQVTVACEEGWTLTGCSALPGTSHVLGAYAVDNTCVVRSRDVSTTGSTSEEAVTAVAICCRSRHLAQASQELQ
observation.type: koff (s⁻¹)
Numbers only, in s⁻¹.

[
  {
    "binder": "CL-148489 (antibody, V domains shown, Human antibody with a kappa light chain) VH: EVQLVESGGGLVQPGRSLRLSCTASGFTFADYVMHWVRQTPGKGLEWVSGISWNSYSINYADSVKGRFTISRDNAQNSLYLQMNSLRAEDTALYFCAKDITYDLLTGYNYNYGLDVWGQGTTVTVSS VL: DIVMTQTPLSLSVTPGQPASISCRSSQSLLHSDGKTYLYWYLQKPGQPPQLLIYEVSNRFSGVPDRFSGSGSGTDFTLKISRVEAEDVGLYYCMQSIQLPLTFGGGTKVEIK",
    "uom": "s⁻¹",
    "koff": 0.000164
  }
]

// input: 3 binders below; output: koff for each
1. CL-148219 (antibody, V domains shown, NLT motif in heavy chain framework 3 confirmed N-glycosylated by mass spectrometry, Human antibody, captured through anti-human Fc in the SPR assay) VH: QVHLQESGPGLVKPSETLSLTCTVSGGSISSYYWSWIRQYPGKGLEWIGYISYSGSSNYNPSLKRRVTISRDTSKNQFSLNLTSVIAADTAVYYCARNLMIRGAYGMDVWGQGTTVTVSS VL: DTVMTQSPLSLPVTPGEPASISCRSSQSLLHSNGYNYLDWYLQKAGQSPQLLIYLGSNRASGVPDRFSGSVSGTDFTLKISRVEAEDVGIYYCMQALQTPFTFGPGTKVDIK
2. CL-148219 QLT mutant (antibody, V domains shown) VH: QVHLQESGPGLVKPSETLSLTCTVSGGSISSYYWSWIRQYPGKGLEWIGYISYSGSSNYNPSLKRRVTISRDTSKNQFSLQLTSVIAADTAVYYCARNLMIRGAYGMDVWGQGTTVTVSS VL: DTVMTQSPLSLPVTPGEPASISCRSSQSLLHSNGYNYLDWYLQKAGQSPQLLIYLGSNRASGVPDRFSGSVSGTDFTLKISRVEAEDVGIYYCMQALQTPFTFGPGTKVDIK
3. CL-274698 (antibody, V domains shown, Human antibody with a kappa light chain, derived from a PCSK9 knockout mouse) VH: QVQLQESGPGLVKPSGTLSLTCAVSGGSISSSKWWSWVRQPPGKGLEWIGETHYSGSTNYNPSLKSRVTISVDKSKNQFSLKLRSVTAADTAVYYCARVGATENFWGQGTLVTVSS VL: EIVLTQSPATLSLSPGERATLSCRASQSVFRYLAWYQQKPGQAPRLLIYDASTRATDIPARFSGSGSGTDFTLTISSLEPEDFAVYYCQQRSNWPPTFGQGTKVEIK

Result ::
1. 0.000225
2. 0.000221
3. 0.000127
